- ASSAY PROTOCOL: DRUGMATRIX: Serotonin (5-Hydroxytryptamine) 5-HT3 radioligand binding (ligand: [3H] GR-65630)
- Type: cell membranes, Membrane
- CONDITION INFO: hek293; Not Active = under 50% inhibition at 10 µM
ASSAY READOUT: IC50

INSERT INTO assay_data (structure_as_smiles, result) VALUES
  ('C=C1/C(=C\C=C2/CCC[C@]3(C)[C@@H]([C@H](C)CCCC(C)C)CC[C@@H]23)C[C@@H](O)C[C@@H]1O', 'Not Active'),
  ('CC[C@H]1OC(=O)[C@H](C)[C@@H](O[C@H]2C[C@@](C)(OC)[C@@H](O)[C@H](C)O2)[C@H](C)[C@@H](O[C@@H]2O[C@H](C)C[C@H](N(C)C)[C@H]2O)[C@](C)(O)C[C@@H](C)CN(C)[C@H](C)[C@@H](O)[C@]1(C)O', 'Not Active'),
  ('C[C@H](C(=O)O)c1cccc(C(=O)c2ccccc2)c1', 'Not Active');

---

- STUDY SYSTEM: Cytochrome P450 2C19 (Homo sapiens, UniProt P33261); also: in other assays of this panel Not Active means under 50% inhibition at 10 µM
- Sequence (P33261 whole entry): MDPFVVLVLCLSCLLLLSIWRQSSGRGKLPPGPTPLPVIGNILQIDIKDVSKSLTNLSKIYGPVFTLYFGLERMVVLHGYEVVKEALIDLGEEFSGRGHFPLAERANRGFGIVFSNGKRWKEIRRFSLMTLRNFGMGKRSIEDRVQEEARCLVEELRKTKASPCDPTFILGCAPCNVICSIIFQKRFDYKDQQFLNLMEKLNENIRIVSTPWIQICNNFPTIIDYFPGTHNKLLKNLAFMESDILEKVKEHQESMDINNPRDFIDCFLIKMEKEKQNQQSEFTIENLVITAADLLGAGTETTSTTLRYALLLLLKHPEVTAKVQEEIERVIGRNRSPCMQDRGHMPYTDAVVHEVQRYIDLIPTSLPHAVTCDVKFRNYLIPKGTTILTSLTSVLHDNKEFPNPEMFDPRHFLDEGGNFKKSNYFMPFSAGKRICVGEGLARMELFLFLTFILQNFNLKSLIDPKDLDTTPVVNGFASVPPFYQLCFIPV
- CONDITION INFO: bti-tn-5b1-4
ASSAY READOUT: Ki

Solved entries:
INSERT INTO results (compound, result) VALUES
  ('CC[C@H]1OC(=O)[C@H](C)[C@@H](O[C@H]2C[C@@](C)(OC)[C@@H](O)[C@H](C)O2)[C@H](C)[C@@H](O[C@@H]2O[C@H](C)C[C@H](N(C)C)[C@H]2O)[C@](C)(O)C[C@@H](C)CN(C)[C@H](C)[C@@H](O)[C@]1(C)O', 'Not Active'),
  ('C[C@]12CC[C@H]3[C@@H](CCC4=CC(=O)CC[C@@]43C)[C@@H]1CC[C@@H]2O', 'Not Active'),
  ('CC(C)(CO)C(O)C(=O)NCCCO (stereo not drawn)', 'Not Active'),
  ('COc1cc(N)nc2[nH]c(-c3ccc(F)cc3)c(-c3ccncc3)c12', 'Not Active'),
  ('O=P1(N(CCCl)CCCl)NCCCO1 (stereo not drawn) [CYCLOPHOSPHAMIDE ANHYDROUS]', 'Not Active'),
  ('O=C(/C=C/c1ccc(O)c(O)c1)OCCc1ccccc1', 'Not Active');

So, COC(=O)c1ccccc1O [METHYL SALICYLATE] ? Its Ki was Not Active

Ki in this record for `C#C[C@]1(O)CC[C@H]2[C@@H]3CCc4cc(O)ccc4[C@H]3CC[C@@]21C` : Not Active

---

- ASSAY PROTOCOL: DRUGMATRIX: Phorbol Ester radioligand binding (ligand: [3H] PDBu)
- Assay type: cell membranes, Mus musculus, ICR, Brain, Membrane
- CONDITION INFO: Not Active = under 50% inhibition at 10 µM
ASSAY READOUT: IC50

INSERT INTO measurements (structure_as_smiles, assay_readout, result) VALUES
  ('CC[C@H]1OC(=O)[C@H](C)[C@@H](O[C@H]2C[C@@](C)(OC)[C@@H](O)[C@H](C)O2)[C@H](C)[C@@H](O[C@@H]2O[C@H](C)C[C@H](N(C)C)[C@H]2O)[C@](C)(O)C[C@@H](C)CN(C)[C@H](C)[C@@H](O)[C@]1(C)O', 'IC50', 'Not Active'),
  ('CCc1oc2ccccc2c1C(=O)c1cc(Br)c(O)c(Br)c1', 'IC50', 'Not Active'),
  ('O=C(O)c1cc(=O)c2c(OCC(O)COc3cccc4oc(C(=O)O)cc(=O)c34)cccc2o1', 'IC50', 'Not Active');

---

Recorded measurements of pIC50, one per entry
- STUDY SYSTEM: 5-hydroxytryptamine receptor 2B (Homo sapiens, UniProt P41595); also: in other assays of this panel Not Active means under 50% inhibition at 10 µM
- Sequence (P41595 whole entry): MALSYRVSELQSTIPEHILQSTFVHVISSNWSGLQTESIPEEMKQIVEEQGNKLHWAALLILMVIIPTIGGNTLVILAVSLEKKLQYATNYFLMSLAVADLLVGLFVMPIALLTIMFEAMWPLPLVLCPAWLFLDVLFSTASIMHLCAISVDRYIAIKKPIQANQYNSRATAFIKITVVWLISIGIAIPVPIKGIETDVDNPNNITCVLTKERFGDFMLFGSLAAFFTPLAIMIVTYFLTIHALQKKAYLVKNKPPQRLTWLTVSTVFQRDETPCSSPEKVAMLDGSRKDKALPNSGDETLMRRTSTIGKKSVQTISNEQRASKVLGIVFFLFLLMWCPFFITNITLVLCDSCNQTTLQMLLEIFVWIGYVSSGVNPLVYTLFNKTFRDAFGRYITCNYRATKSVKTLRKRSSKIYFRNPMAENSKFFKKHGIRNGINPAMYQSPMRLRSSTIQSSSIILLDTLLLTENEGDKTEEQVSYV
- Type: cell membranes, CHO-K1, Membrane
- CONDITION INFO: read-out: IC50
Please keep in mind that pIC50 is minus log10 of the molar concentration; only the number is needed.

INSERT INTO measurements (compound, result) VALUES
  ('N=C(N)N/N=C/c1c(Cl)cccc1Cl [GUANABENZ]', 7.01),
  ('CN1C[C@H](C(=O)N[C@]2(C)O[C@@]3(O)[C@@H]4CCCN4C(=O)[C@H](Cc4ccccc4)N3C2=O)C[C@@H]2c3cccc4[nH]cc(c34)C[C@H]21 [DIHYDROERGOTAMINE]', 8.17),
  ('CC(C)C[C@H]1C(=O)N2CCC[C@H]2[C@]2(O)O[C@](NC(=O)[C@@H]3C=C4c5cccc6[nH]c(Br)c(c56)C[C@H]4N(C)C3)(C(C)C)C(=O)N12 [BROMOCRIPTINE]', 8.08);

--- query ---
Query OCCN1CCN(CCCN2c3ccccc3Sc3ccc(C(F)(F)F)cc32)CC1 [FLUPHENAZINE] yields pIC50 of 7.41

---

- STUDY SYSTEM: Matrix metalloproteinase-9 (Homo sapiens, UniProt P14780); also: in other assays of this panel Not Active means under 50% inhibition at 10 µM;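 also: inhibition of isolated MMP-9 enzyme activity toward a synthetic peptide substrate, from the DrugMatrix protease screening panel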
- Sequence (P14780 whole entry): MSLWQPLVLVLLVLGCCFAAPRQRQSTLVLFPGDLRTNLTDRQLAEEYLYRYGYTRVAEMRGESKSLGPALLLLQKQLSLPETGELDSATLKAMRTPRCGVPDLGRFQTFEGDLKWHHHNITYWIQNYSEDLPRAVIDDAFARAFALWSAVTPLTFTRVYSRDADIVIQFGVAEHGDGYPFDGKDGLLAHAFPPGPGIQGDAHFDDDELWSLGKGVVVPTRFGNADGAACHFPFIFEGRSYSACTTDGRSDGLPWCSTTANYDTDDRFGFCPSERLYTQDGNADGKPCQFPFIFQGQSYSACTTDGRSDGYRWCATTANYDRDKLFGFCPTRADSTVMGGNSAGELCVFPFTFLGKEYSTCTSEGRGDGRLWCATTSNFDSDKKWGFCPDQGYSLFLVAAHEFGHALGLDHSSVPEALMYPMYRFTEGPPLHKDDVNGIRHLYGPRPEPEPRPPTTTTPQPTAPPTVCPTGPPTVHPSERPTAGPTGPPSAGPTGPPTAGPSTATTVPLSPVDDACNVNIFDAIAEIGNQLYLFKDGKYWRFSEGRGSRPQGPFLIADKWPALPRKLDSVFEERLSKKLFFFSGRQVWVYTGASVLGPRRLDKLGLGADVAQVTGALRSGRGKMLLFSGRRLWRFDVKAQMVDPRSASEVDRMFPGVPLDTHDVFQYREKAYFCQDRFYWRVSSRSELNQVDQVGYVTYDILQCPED
- ASSAY PROTOCOL: biochemical
- Format: cell-based
ASSAY READOUT: IC50

Worked cases, answers included:
INSERT INTO assay_data (compound, result) VALUES
  ('COc1ccc(Cc2nccc3cc(OC)c(OC)cc23)cc1OC', 'Not Active'),
  ('Cc1cn[nH]c1 [FOMEPIZOLE]', 'Not Active'),
  ('O=C(c1ccccc1Cl)N1CCC(Cc2ccccc2)CC1', 'Not Active'),
  ('COc1cc(N)nc2[nH]c(-c3ccc(F)cc3)c(-c3ccncc3)c12', 'Not Active');

Form field IC50, entry CC(=O)Nc1nnc(S(N)(=O)=O)s1 [ACETAZOLAMIDE] : Not Active

Entry under test: `Clc1cc2c(cc1Cl)Oc1cc(Cl)c(Cl)cc1O2` . Its IC50 was Not Active

What the record says about `C[C@H]([C@](O)(Cn1cncn1)c1ccc(F)cc1F)S(C)(=O)=O` : IC50 is Not Active

Measured IC50, `CCOC(=O)[C@H](CCc1ccccc1)N[C@@H](C)C(=O)N1Cc2ccccc2C[C@H]1C(=O)O` : Not Active

Measured IC50 of Cc1c(F)c(N2CCNC(C)C2)cc2c1c(=O)c(C(=O)O)cn2C1CC1 (stereo not drawn) : Not Active

Value of IC50 reported for the compound `OCCO` is Not Active

Entry `N=C(N)N/N=C/c1c(Cl)cccc1Cl` , IC50 reported as Not Active

Item: CCCCCC[C@H]1C(=O)O[C@H](C)[C@H](NC(=O)c2cccc(NC=O)c2O)C(=O)O[C@@H](C)[C@@H]1OC(=O)CC(C)C [ANTIMYCIN A] | IC50: Not Active

The reported IC50 of the compound CN1C[C@H](C(=O)N[C@]2(C)O[C@@]3(O)[C@@H]4CCCN4C(=O)[C@H](Cc4ccccc4)N3C2=O)C[C@@H]2c3cccc4[nH]cc(c34)C[C@H]21 [DIHYDROERGOTAMINE] was Not Active

Consider `N[C@@H](Cc1ccc(F)cc1)C(=O)O` . Its measured IC50 is Not Active

For CC(C(=O)O)c1ccc(CC2CCCC2=O)cc1 (stereo not drawn) the compound record lists IC50 as Not Active

Per the record, `CCCc1nn(C)c2c(=O)[nH]c(-c3cc(S(=O)(=O)N4CCN(C)CC4)ccc3OCC)nc12` has IC50 of Not Active

Given item `C[C@@H]1CC[C@H]2[C@@H](C)C(=O)O[C@@H]3O[C@@]4(C)CC[C@@H]1[C@]32OO4` , the value recorded as its IC50 is Not Active

Reported IC50 ( `CCOC(=O)[C@H](CCc1ccccc1)N[C@@H](C)C(=O)N1CCC[C@H]1C(=O)O` ) = Not Active

---

- STUDY SYSTEM: Sodium-dependent noradrenaline transporter (Homo sapiens)
- Sequence (P23975 whole entry): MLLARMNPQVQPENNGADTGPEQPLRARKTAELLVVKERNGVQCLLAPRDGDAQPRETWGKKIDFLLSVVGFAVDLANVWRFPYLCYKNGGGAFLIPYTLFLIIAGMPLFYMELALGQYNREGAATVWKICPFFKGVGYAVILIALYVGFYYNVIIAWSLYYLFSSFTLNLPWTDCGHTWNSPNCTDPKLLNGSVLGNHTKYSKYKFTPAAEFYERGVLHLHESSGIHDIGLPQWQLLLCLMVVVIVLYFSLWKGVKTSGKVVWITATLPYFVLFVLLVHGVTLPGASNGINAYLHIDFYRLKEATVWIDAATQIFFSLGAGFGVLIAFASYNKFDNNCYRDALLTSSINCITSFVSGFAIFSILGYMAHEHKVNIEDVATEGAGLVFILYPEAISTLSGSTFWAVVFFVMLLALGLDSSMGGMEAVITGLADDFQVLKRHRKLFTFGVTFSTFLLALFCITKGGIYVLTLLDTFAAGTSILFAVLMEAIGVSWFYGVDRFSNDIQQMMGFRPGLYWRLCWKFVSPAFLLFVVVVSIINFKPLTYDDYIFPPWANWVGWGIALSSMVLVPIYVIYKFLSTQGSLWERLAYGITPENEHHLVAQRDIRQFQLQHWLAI
- ASSAY PROTOCOL: DRUGMATRIX: Norepinephrine Transporter radioligand binding (ligand: [125I] RTI-55)
- Assay type: cell membranes, MDCK, Membrane
- CONDITION INFO: mdck; Not Active = under 50% inhibition at 10 µM
ASSAY READOUT: IC50

INSERT INTO assay_data (compound, assay_readout, result) VALUES
  ('COc1cc(CNC(=O)CCCC/C=C/C(C)C)ccc1O [CAPSAICIN]', 'IC50', 'Not Active'),
  ('CN[C@@H]1[C@H](O)[C@H](NC)[C@H]2O[C@@]3(O)C(=O)C[C@@H](C)O[C@H]3O[C@@H]2[C@H]1O [SPECTINOMYCIN]', 'IC50', 'Not Active'),
  ('CO[C@H]1C[C@@H]2CC[C@@H](C)[C@@](O)(O2)C(=O)C(=O)N2CCCC[C@H]2C(=O)O[C@H]([C@H](C)C[C@@H]2CC[C@@H](O)[C@H](OC)C2)CC(=O)[C@H](C)/C=C(\C)[C@@H](O)[C@@H](OC)C(=O)[C@H](C)C[C@H](C)/C=C/C=C/C=C/1C [SIROLIMUS]', 'IC50', 'Not Active'),
  ('COc1cc(C(=O)NS(=O)(=O)c2ccccc2C)ccc1Cc1cn(C)c2ccc(NC(=O)OC3CCCC3)cc12 [ZAFIRLUKAST]', 'IC50', 'Not Active');

Summary: C[C@]12C/C(=C/O)C(=O)C[C@@H]1CC[C@@H]1[C@@H]2CC[C@@]2(C)[C@H]1CC[C@]2(C)O [OXYMETHOLONE] , Sodium-dependent noradrenaline transporter (Homo sapiens), IC50 = Not Active

Summary: CC(C)(Sc1cc(C(C)(C)C)c(O)c(C(C)(C)C)c1)Sc1cc(C(C)(C)C)c(O)c(C(C)(C)C)c1 [PROBUCOL] , Sodium-dependent noradrenaline transporter (Homo sapiens), IC50 = Not Active

Entry CCS(=O)(=O)CCn1c([N+](=O)[O-])cnc1C [TINIDAZOLE] ; assay system Sodium-dependent noradrenaline transporter (Homo sapiens); IC50 recorded at Not Active

Field IC50 (Sodium-dependent noradrenaline transporter (Homo sapiens)), entry Nc1ccc(S(=O)(=O)Nc2ncccn2)cc1 [SULFADIAZINE] : Not Active

The compound CCc1oc2ccccc2c1C(=O)c1cc(Br)c(O)c(Br)c1 [BENZBROMARONE] , tested on Sodium-dependent noradrenaline transporter (Homo sapiens), showed IC50 of Not Active
